Data provenance: ChEMBL document CHEMBL3112510

Tested on: MCF7
assayName: cells
assayContext: Homo sapiens, MCF7, 72 h
experimentalReadout: pIC50
pIC50 (log units): -log10 of the concentration in mol/L.

{"structureString": "CC1=CC[C@H]2[C@H](CC[C@]2(C)O)C(C)(C)[C@@H]1CC[C@H]1[C@]2(C)CC[C@H](OC(=O)c3ccc(F)cc3)C(C)(C)O[C@H]2CC[C@@]1(C)O", "tgt": "MCF7", "pIC50": 4.47}
{"structureString": "CC1=CC[C@H]2[C@H](CC[C@]2(C)O)C(C)(C)[C@@H]1CC[C@H]1[C@]2(C)CC[C@H](OC(=O)c3ccc(Cl)cc3)C(C)(C)O[C@H]2CC[C@@]1(C)O", "tgt": "MCF7", "pIC50": 4.62}

Lab note: next compound to report on.
Task: Need pIC50 of CC1=CC[C@H]2[C@H](CC[C@]2(C)O)C(C)(C)[C@@H]1CC[C@H]1[C@]2(C)CC[C@H](OC(=O)c3ccc([N+](=O)[O-])o3)C(C)(C)O[C@H]2CC[C@@]1(C)O , thanks.
Output: 4.67

* * *

Recorded IC50 for the following compounds
Test system: MCF7
assayName: cells
assayContext: Homo sapiens, MCF7, 72 h

The examples below pair each entry with its known result.
{"structureString": "C[C@H]1C(=O)C[C@H]2[C@H](CC[C@]2(C)O)C(C)(C)[C@@H]1CC[C@H]1[C@]2(C)CC[C@H](O)C(C)(C)O[C@H]2CC[C@@]1(C)O", "result": "> 50 µM"}
{"structureString": "CC1=CC[C@H]2[C@H](CC[C@]2(C)O)C(C)(C)[C@@H]1CC[C@H]1[C@]2(C)CC/C(=N/OCc3ccccc3)C(C)(C)O[C@H]2CC[C@@]1(C)O", "result": "> 50 µM"}
{"structureString": "CC1=CC[C@H]2[C@H](CC[C@]2(C)O)C(C)(C)[C@@H]1CC[C@H]1[C@]2(C)CC[C@H](OC(=O)c3ccccc3[N+](=O)[O-])C(C)(C)O[C@H]2CC[C@@]1(C)O", "result": "5.2 µM"}
{"structureString": "CC1(C)O[C@H]2CC[C@@](C)(O)[C@@H](CC[C@H]3C(C)(C)[C@@]4(O)CC[C@](C)(O)[C@H]4C[C@H]4O[C@]43C)[C@]2(C)CC[C@@H]1O", "result": "> 50 µM"}

Lab note: next compound to report on.
Task: Which measured IC50 value corresponds to CC1(C)O[C@H]2CC[C@@](C)(O)[C@@H](CC[C@H]3C(C)(C)[C@@]4(O)CC[C@](C)(O)[C@H]4C[C@H]4O[C@]43C)[C@]2(C)CCC1=O ?
Output: > 50 µM

* * *

Item-by-item account of IC50
Test system: MDA-MB-231
assayName: Antimigratory activity in human MDA-MB-231 cells after 24 hrs by wound healing assay
assayContext: MDA-MB-231, 24 h
State just the number; it will be interpreted in µM.

Consider the reported IC50 for these compounds:
{"compound": "CC1=CC[C@H]2[C@H](CC[C@]2(C)O)C(C)(C)[C@@H]1CC[C@H]1[C@]2(C)CC[C@H](OC(=O)c3ccncc3)C(C)(C)O[C@H]2CC[C@@]1(C)O", "uom": "µM", "quantitativeReadout": 10.6}
{"compound": "CC1=CC[C@H]2[C@@H]1CC=C(C)[C@@H](CC[C@H]1[C@]3(C)CC[C@H](O)C(C)(C)O[C@H]3CC[C@@]1(C)O)C2(C)C", "uom": "µM", "quantitativeReadout": 35.3}
{"compound": "CC1=CC[C@H]2[C@H](CC[C@]2(C)O)C(C)(C)[C@@H]1CC[C@H]1[C@]2(C)CC[C@H](OC(=O)c3ccc(F)cc3)C(C)(C)O[C@H]2CC[C@@]1(C)O", "uom": "µM", "quantitativeReadout": 2.4}
{"compound": "CC1=CC[C@H]2[C@@H]1CC=C(C)[C@@H](CC[C@H]1[C@]3(C)CC[C@H](OC(=O)c4ccc(C)cc4)C(C)(C)O[C@H]3CC[C@@]1(C)O)C2(C)C", "uom": "µM", "quantitativeReadout": 12.3}
{"compound": "CC1=CC[C@H]2[C@@H]1CC=C(C)[C@@H](CC[C@H]1[C@]3(C)CC[C@H](OC(=O)c4ccc(Cl)cc4)C(C)(C)O[C@H]3CC[C@@]1(C)O)C2(C)C", "uom": "µM", "quantitativeReadout": 5.9}
{"compound": "CC1(C)O[C@H]2CC[C@@](C)(O)[C@@H](CC[C@H]3C(C)(C)[C@@]4(O)CC[C@](C)(O)[C@H]4C[C@H]4O[C@]43C)[C@]2(C)CCC1=O", "uom": "µM", "quantitativeReadout": 33}
{"compound": "C=C(C)C(CC[C@@]1(C)C(CC[C@H]2[C@]3(C)CC[C@H](O)C(C)(C)O[C@H]3CC[C@@]2(C)O)=C(C)CC[C@H]1O)OO (some centres not stated)", "uom": "µM", "quantitativeReadout": 39}
{"compound": "CC1=CC[C@H]2[C@H](CC[C@]2(C)O)C(C)(C)[C@@H]1CC[C@H]1[C@]2(C)CC[C@H](OC(=O)NS(=O)(=O)c3ccc(C)cc3)C(C)(C)O[C@H]2CC[C@@]1(C)O", "uom": "µM", "quantitativeReadout": 18}

Task: Name the recorded IC50 for CC1=CC[C@H]2[C@H](CC[C@]2(C)O)C(C)(C)[C@@H]1CC[C@H]1[C@]2(C)CC[C@H](OC(=O)c3ccccc3F)C(C)(C)O[C@H]2CC[C@@]1(C)O .
Output: 22.7
